Record: IC50 reported on TrkA (Homo sapiens (Human), UniProt P04629).
Sequence (P04629 33-796): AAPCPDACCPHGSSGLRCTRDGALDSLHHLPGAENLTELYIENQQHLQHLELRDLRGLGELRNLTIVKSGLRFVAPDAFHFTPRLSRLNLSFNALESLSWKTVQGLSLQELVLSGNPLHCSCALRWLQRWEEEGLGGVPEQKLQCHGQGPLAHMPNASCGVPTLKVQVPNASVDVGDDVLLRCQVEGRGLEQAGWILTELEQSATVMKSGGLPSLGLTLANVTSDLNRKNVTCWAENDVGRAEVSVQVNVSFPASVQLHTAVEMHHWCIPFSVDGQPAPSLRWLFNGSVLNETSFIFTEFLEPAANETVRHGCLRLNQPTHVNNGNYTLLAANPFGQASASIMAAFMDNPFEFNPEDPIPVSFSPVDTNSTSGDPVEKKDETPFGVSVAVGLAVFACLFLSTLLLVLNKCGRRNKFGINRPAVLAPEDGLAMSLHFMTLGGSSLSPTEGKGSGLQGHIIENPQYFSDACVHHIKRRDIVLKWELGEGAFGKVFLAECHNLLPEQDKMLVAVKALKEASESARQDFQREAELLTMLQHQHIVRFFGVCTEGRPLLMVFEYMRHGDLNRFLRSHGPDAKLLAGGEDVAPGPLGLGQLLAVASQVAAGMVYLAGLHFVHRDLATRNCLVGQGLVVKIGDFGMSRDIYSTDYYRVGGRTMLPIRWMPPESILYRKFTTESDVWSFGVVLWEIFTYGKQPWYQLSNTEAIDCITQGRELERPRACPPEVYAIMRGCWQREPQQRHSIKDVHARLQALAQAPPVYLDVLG
Structures can show the parent of a compound that is named as a salt.

Field: example entries. Status: answers known.
compound: COCCN1C[C@@H](NC(=O)Nc2c(Cl)c(C3CCN(S(=O)(=O)C(F)(F)F)CC3)nn2-c2ccccc2)[C@H](c2ccc(F)c(F)c2)C1 [Example 594, hydrochloride]
targetOfAssay: TrkA (Homo sapiens (Human), UniProt P04629)
IC50: < 0.1 µM
//
compound: NC(=O)CN1C[C@@H](NC(=O)Nc2c3c(nn2-c2ccccc2)CCC3)[C@H](c2ccccc2)C1 [Example 190]
targetOfAssay: TrkA (Homo sapiens (Human), UniProt P04629)
IC50: 1 to 10 µM
//
compound: COCCN1C[C@@H](NC(=O)Nc2c(C)c([C@H]3CCCN3)nn2-c2ccccc2)[C@H](c2ccc(F)c(F)c2)C1 [Example 583, dihydrochloride]
targetOfAssay: TrkA (Homo sapiens (Human), UniProt P04629)
IC50: < 0.1 µM
//
compound: COCCN1C[C@@H](NC(=O)Nc2c(Br)c(-c3cccnc3)nn2-c2ccccc2)[C@H](c2ccc(F)c(F)c2)C1 [Example 483]
targetOfAssay: TrkA (Homo sapiens (Human), UniProt P04629)
IC50: < 0.1 µM
//
compound: COCC(C(=O)O)N1C[C@@H](NC(=O)Nc2c3c(nn2-c2ccccc2)CCC3)[C@H](c2ccc(F)c(F)c2)C1 (stereo partly drawn) [Example 262, hydrochloride]
targetOfAssay: TrkA (Homo sapiens (Human), UniProt P04629)
IC50: 1 to 10 µM

Reported IC50 of COCCN1C[C@@H](NC(=O)Nc2c(C(F)(F)F)c(OC)nn2-c2ccccc2)[C@H](c2ccc(F)cc2)C1 [Example 607] : < 0.1 µM

Origin of values: patent US10323022B2
